target: GPR40 (Homo sapiens); construct: expressed in transfected cells; host or cells: HEK293 cells stably expressing GPR40 (Hygromycin selection); test: IP1 accumulation assay in HEK293 cells stably expressing GPR40; format: cell-based; conditions: Tables A-1a to A-7b (structure-property relationship); obtained by methods of Biological Example 1
Overview of reported EC50 across a group of molecules:

| molecule | EC50 [nM] |
| --- | --- |
| COc1ccc(C(=O)N(CC(C)(C)CCn2cc(CCCCCCCCCCCCCC(=O)NCC[N+](C)(CCC(=O)NCCN)CCC(=O)NCCN)nn2)c2cccc(C)n2)c(N2CCC(COc3cc([C@@H](CC(=O)O)C4CC4)ccn3)CC2)c1 | 0.29 |
| COc1ccc(C(=O)N(CC(C)(C)CCn2cc(CCCCCCCCCC(=O)NCCC[N+](C)(CC(=O)[O-])CC(=O)O)nn2)c2cccc(C)n2)c(N2CCC(COc3cc([C@@H](CC(=O)O)C4CC4)ccn3)CC2)c1 (stereo partly shown) | 617 |
| COc1ccc(C(=O)N(CC(C)(C)CCCCCCn2cc(CCCCCCCCCCC(=O)NCCN(CCC(=O)NCCN)CCC(=O)NCCN)nn2)c2cccc(C)n2)c(N2CCC(COc3cc([C@@H](CC(=O)O)C4CC4)ccn3)CC2)c1 [Example 68] | 1.79 |
| C[C@H](C(=O)O)[C@H](c1ccc2c(c1)O[C@@H](C1CCN(Cc3cc(-c4cn(CCCCCCCCCCCC(=O)NCC[N+](C)(CCC(=O)NCCN)CCC(=O)NCCN)nn4)ccc3OC(F)(F)F)CC1)CC2)C1CC1 | 650 |

----------
Below: a set of entries, each annotated with reported pEC50.
target: GPR40 (Homo sapiens); construct: expressed in transfected cells; host or cells: HEK293 cells stably expressing GPR40 (Hygromycin selection); test: IP1 accumulation assay in HEK293 cells stably expressing GPR40; assay type: cell-based; conditions: Table A-8 (additional examples); obtained by methods of Biological Example 1
pEC50: −log10 of the molar value.

| smiles_representation | rel | pEC50 |
| --- | --- | --- |
| COc1ccc(C(=O)N(CC(C)(C)CCn2cc(CCCCCCCCCCCCCCCC(=O)NCC[N+](C)(CCC(=O)NCCN)CCC(=O)NCCN)nn2)c2cccc(C)n2)c(N2CCC(COc3cc([C@@H](CC(=O)O)C4CC4)ccn3)CC2)c1 | = | 9.80 |
| COc1ccc(C(=O)N(CC(C)(C)CCn2cc(COCCOCCOCC(=O)NCCN(CCC(=O)NCCN)CCC(=O)NCCN)nn2)c2cccc(C)n2)c(N2CCC(COc3cc([C@@H](CC(=O)O)C4CC4)ccn3)CC2)c1 | < | 5.22 |
| C[C@H](C(=O)O)[C@H](c1ccc2c(c1)O[C@@H](C1CCN(Cc3cc(-n4cc(CCCCCCCCCCCCCCCC(=O)NCCN(CCC(=O)NCCN)CCC(=O)NCCN)nn4)ccc3OC(F)(F)F)CC1)CC2)C1CC1 | = | 10.30 |
| COc1ccc(F)c(-c2ccc(COc3cccc([C@@H](CC(=O)O)C4CC4)c3)cc2CC(C)(C)Cn2cc(CCCCCCCCCC(=O)NCCN(CCC(=O)NCCN)CCC(=O)NCCN)nn2)c1 | = | 6.68 |
| COc1ccc(F)c(-c2ccc(COc3cccc([C@@H](CC(=O)O)C4CC4)c3)cc2CC(C)(C)Cn2cc(COCCOCCOCCOCCOCC(=O)NCC[N+](C)(CCC(=O)NCCN)CCC(=O)NCCN)nn2)c1 | < | 6.70 |
| COc1ccc(F)c(-c2ccc(COc3cccc([C@@H](CC(=O)O)C4CC4)c3)cc2CC(C)(C)Cn2cc(COCCOCCOCCOCCOCC(=O)NCCN(CCC(=O)NCCN)CCC(=O)NCCN)nn2)c1 | < | 5.00 |
| COc1ccc(F)c(-c2ccc(COc3cccc([C@@H](CC(=O)O)C4CC4)c3)cc2CC(C)(C)Cn2cc(CCCCCCCCCCCCCCCC(=O)NCC[N+](C)(CCC(=O)NCCN)CCC(=O)NCCN)nn2)c1 | = | 8.82 |
| COc1ccc(C(=O)N(CC(C)(C)CCn2cc(COCCOCCOCCOCCOCC(=O)NCC[N+](C)(CCC(=O)NCCN)CCC(=O)NCCN)nn2)c2cccc(C)n2)c(N2CCC(COc3cc([C@@H](CC(=O)O)C4CC4)ccn3)CC2)c1 | = | 5.88 |
| COc1ccc(C(=O)N(CC(C)(C)CCn2cc(CCCCCCCCCC(=O)NCCN(CCC(=O)NCCN)CCC(=O)NCCN)nn2)c2cccc(C)n2)c(N2CCC(COc3cc([C@@H](CC(=O)O)C4CC4)ccn3)CC2)c1 | = | 7.08 |

----------
molecular target: GPR40 (Homo sapiens, UniProt O14842); construct: expressed in transfected cells; host or cells: HEK293 cells stably expressing GPR40 (Hygromycin selection); assay: IP1 accumulation assay in HEK293 cells stably expressing GPR40; type: cell-based; conditions: IP1 accumulation, HEK293 cells stably expressing GPR40, 2 hours at 37° C., % effect relative to AMG-1638; table of Biological Example 1
Sequence (O14842 whole entry): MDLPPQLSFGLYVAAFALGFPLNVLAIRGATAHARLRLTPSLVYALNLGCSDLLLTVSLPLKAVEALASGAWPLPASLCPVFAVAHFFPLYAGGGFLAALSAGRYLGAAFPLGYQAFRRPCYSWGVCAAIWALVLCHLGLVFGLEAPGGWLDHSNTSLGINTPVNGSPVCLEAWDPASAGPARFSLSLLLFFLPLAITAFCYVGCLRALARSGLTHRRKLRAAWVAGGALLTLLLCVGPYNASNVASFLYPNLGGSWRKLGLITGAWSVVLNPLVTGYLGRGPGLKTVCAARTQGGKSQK
pEC50: −log10 of the molar value.
Label yes (1) when pEC50 >= 8; otherwise no (0).

| compound | cat |
| --- | --- |
| COc1ccc(C(=O)N(CC(C)(C)CCn2cc(CCCCC(=O)NCC[N+](C)(CCC(=O)NCCN)CCC(=O)NCCN)nn2)c2cccc(C)n2)c(N2CCC(COc3cc([C@@H](CC(=O)O)C4CC4)ccn3)CC2)c1 | no (0) |
| COc1ccc(F)c(-c2ccc(COc3cccc([C@@H](CC(=O)O)C4CC4)c3)cc2CC(C)(C)Cn2cc(COCCOCCOCC(=O)NCCN(CCC(=O)NCCN)CCC(=O)NCCN)nn2)c1 | no (0) |
| COc1ccc(F)c(-c2ccc(COc3cccc([C@@H](CC(=O)O)C4CC4)c3)cc2C(C)(C)c2cn(CCCCCCCCCCCCCCCC(=O)NCCN(CCC(=O)NCCN)CCC(=O)NCCN)nn2)c1 | no (0) |
| COc1ccc(F)c(-c2ccc(COc3cccc([C@@H](CC(=O)O)C4CC4)c3)cc2C(C)(C)c2cn(CCCCCCCCCCCCCCCC(=O)NCC[N+](C)(CCC(=O)NCCN)CCC(=O)NCCN)nn2)c1 | no (0) |
| COc1ccc(C(=O)N(CC(C)(C)CCn2cc(CCCCCCCCC(=O)NCCC[N+](C)(CC(=O)[O-])CC(=O)O)nn2)c2cccc(C)n2)c(N2CCC(COc3cc([C@@H](CC(=O)O)C4CC4)ccn3)CC2)c1 (stereo partly drawn) | no (0) |
| COc1ccc(F)c(-c2ccc(COc3cccc([C@@H](CC(=O)O)C4CC4)c3)cc2C(OCCCCCn2cc(CCCCCCCCCCCCC(=O)NCCN(CCC(=O)NCCN)CCC(=O)NCCN)nn2)C(C)(C)C)c1 (stereo partly drawn) | no (0) |
| C[C@H](C(=O)O)[C@H](c1ccc2c(c1)O[C@@H](C1CCN(Cc3cc(-c4cn(CCCCCCCCCCCCCCCC(=O)NCC[N+](C)(CCC(=O)NCCN)CCC(=O)NCCN)nn4)ccc3OC(F)(F)F)CC1)CC2)C1CC1 | yes (1) |
| COc1ccc(C(=O)N(CC(C)(C)CCCCCCn2cc(CCCCCCCCCCCCCCCCCC(=O)NCC[N+](C)(C)CCCS(=O)(=O)[O-])nn2)c2cccc(C)n2)c(N2CCC(COc3cc([C@@H](CC(=O)O)C4CC4)ccn3)CC2)c1 | yes (1) |
| CCCCCOC(=O)CCCCCCCCCCCCCCCCCc1cn(CC(C)(C)Cc2cc(COc3cccc([C@@H](CC(=O)O)C4CC4)c3)ccc2-c2cc(OC)ccc2F)nn1 | no (0) |

----------
target: GPR40 (Homo sapiens); construct: expressed in transfected cells; host or cells: HEK293 cells stably expressing GPR40 (Hygromycin selection); test: IP1 accumulation assay in HEK293 cells stably expressing GPR40; assay type: cell-based; details: Table A-8 (additional examples); obtained by methods of Biological Example 1
pEC50: −log10 of the molar value.
Listed compounds paired with reported pEC50

| compound | test_target | rel | pEC50 |
| --- | --- | --- | --- |
| COc1ccc(C(=O)N(CC(C)(C)CCn2cc(COCCOCCOCC(=O)NCC[N+](C)(CCC(=O)NCCN)CCC(=O)NCCN)nn2)c2cccc(C)n2)c(N2CCC(COc3cc([C@@H](CC(=O)O)C4CC4)ccn3)CC2)c1 | GPR40 (Homo sapiens) | = | 5.90 |
| COc1ccc(F)c(-c2ccc(COc3cccc([C@@H](CC(=O)O)C4CC4)c3)cc2CC(C)(C)Cn2cc(CCCCCCCCCC(=O)NCC[N+](C)(CCC(=O)NCCN)CCC(=O)NCCN)nn2)c1 | GPR40 (Homo sapiens) | = | 6.60 |
| C[C@H](C(=O)O)[C@H](c1ccc2c(c1)O[C@@H](C1CCN(Cc3cc(-n4cc(COCCOCCOCCOCC(=O)NCC[N+](C)(CCC(=O)NCCN)CCC(=O)NCCN)nn4)ccc3OC(F)(F)F)CC1)CC2)C1CC1 | GPR40 (Homo sapiens) | < | 5.00 |
| C[C@H](C(=O)O)[C@H](c1ccc2c(c1)O[C@@H](C1CCN(Cc3cc(-n4cc(COCCOCCOCCOCC(=O)NCCN(CCC(=O)NCCN)CCC(=O)NCCN)nn4)ccc3OC(F)(F)F)CC1)CC2)C1CC1 | GPR40 (Homo sapiens) | = | 5.28 |
| C[C@H](C(=O)O)[C@H](c1ccc2c(c1)O[C@@H](C1CCN(Cc3cc(-n4cc(CCCCCCCCCCCCC(=O)NCCN(CCC(=O)NCCN)CCC(=O)NCCN)nn4)ccc3OC(F)(F)F)CC1)CC2)C1CC1 | GPR40 (Homo sapiens) | = | 8.26 |
| COc1ccc(F)c(-c2ccc(COc3cccc([C@@H](CC(=O)O)C4CC4)c3)cc2CC(C)(C)Cn2cc(CCCCCCCCCCCCC(=O)NCCN(CCC(=O)NCCN)CCC(=O)NCCN)nn2)c1 | GPR40 (Homo sapiens) | = | 6.15 |
| COc1ccc(F)c(-c2ccc(COc3cccc([C@@H](CC(=O)O)C4CC4)c3)cc2CC(C)(C)Cn2cc(COCCOCCOCC(=O)NCC[N+](C)(CCC(=O)NCCN)CCC(=O)NCCN)nn2)c1 | GPR40 (Homo sapiens) | < | 5.00 |
| COc1ccc(F)c(-c2ccc(COc3cccc([C@@H](CC(=O)O)C4CC4)c3)cc2CC(C)(C)Cn2cc(CCCCCCCCCCCCC(=O)NCC[N+](C)(CCC(=O)NCCN)CCC(=O)NCCN)nn2)c1 | GPR40 (Homo sapiens) | = | 6.77 |
| C[C@H](C(=O)O)[C@H](c1ccc2c(c1)O[C@@H](C1CCN(Cc3cc(-n4cc(CCCCCCCCCCCCCCCC(=O)NCC[N+](C)(CCC(=O)NCCN)CCC(=O)NCCN)nn4)ccc3OC(F)(F)F)CC1)CC2)C1CC1 | GPR40 (Homo sapiens) | = | 10.30 |
| COc1ccc(C(=O)N(CC(C)(C)CCn2cc(COCCOCCOCCOCCOCC(=O)NCCN(CCC(=O)NCCN)CCC(=O)NCCN)nn2)c2cccc(C)n2)c(N2CCC(COc3cc([C@@H](CC(=O)O)C4CC4)ccn3)CC2)c1 | GPR40 (Homo sapiens) | = | 5.66 |
| COc1ccc(C(=O)N(CC(C)(C)CCn2cc(CCCCCCCCCC(=O)NCC[N+](C)(CCC(=O)NCCN)CCC(=O)NCCN)nn2)c2cccc(C)n2)c(N2CCC(COc3cc([C@@H](CC(=O)O)C4CC4)ccn3)CC2)c1 | GPR40 (Homo sapiens) | = | 7.35 |
| COc1ccc(C(=O)N(CC(C)(C)CCn2cc(COCCOCCOCCOCC(=O)NCC[N+](C)(CCC(=O)NCCN)CCC(=O)NCCN)nn2)c2cccc(C)n2)c(N2CCC(COc3cc(C(CC(=O)O)C4CC4)ccn3)CC2)c1 (stereo not drawn) | GPR40 (Homo sapiens) | < | 5.30 |
| COc1ccc(F)c(-c2ccc(COc3cccc([C@@H](CC(=O)O)C4CC4)c3)cc2CC(C)(C)Cn2cc(CCCCCCCCCCCCCCCC(=O)NCCN(CCC(=O)NCCN)CCC(=O)NCCN)nn2)c1 | GPR40 (Homo sapiens) | = | 8.87 |
| C[C@H](C(=O)O)[C@H](c1ccc2c(c1)O[C@@H](C1CCN(Cc3cc(-n4cc(CCCCCCCCCC(=O)NCC[N+](C)(CCC(=O)NCCN)CCC(=O)NCCN)nn4)ccc3OC(F)(F)F)CC1)CC2)C1CC1 | GPR40 (Homo sapiens) | = | 7.03 |
| C[C@H](C(=O)O)[C@H](c1ccc2c(c1)O[C@@H](C1CCN(Cc3cc(-n4cc(COCCOCCOCCOCCOCC(=O)NCC[N+](C)(CCC(=O)NCCN)CCC(=O)NCCN)nn4)ccc3OC(F)(F)F)CC1)CC2)C1CC1 | GPR40 (Homo sapiens) | < | 5.00 |
| C[C@H](C(=O)O)[C@H](c1ccc2c(c1)O[C@@H](C1CCN(Cc3cc(-n4cc(CCCCCCCCCC(=O)NCCN(CCC(=O)NCCN)CCC(=O)NCCN)nn4)ccc3OC(F)(F)F)CC1)CC2)C1CC1 | GPR40 (Homo sapiens) | = | 6.38 |
| C[C@H](C(=O)O)[C@H](c1ccc2c(c1)O[C@@H](C1CCN(Cc3cc(-n4cc(COCCOCCOCC(=O)NCCN(CCC(=O)NCCN)CCC(=O)NCCN)nn4)ccc3OC(F)(F)F)CC1)CC2)C1CC1 | GPR40 (Homo sapiens) | < | 5.00 |
| COc1ccc(C(=O)N(CC(C)(C)CCn2cc(CCCCCCCCCCCCC(=O)NCC[N+](C)(CCC(=O)NCCN)CCC(=O)NCCN)nn2)c2cccc(C)n2)c(N2CCC(COc3cc([C@@H](CC(=O)O)C4CC4)ccn3)CC2)c1 | GPR40 (Homo sapiens) | = | 9.29 |

These data points were gathered from patent US20250223281A1.
